Data credit: PubChem BioAssay (NCI)

# Tested on: HL-60(TB) leukemia
# assayDetails: NCI-60 one-dose screen, 48 h (100 = growth as untreated, 0 = no growth, -100 = all killed)
# testParameters: 10 µM unless noted
About 83,000 compounds went through this panel and 20% of them were active in at least one assay; those are over-represented in the sample as a whole.
Below, each of the compounds is paired with its reported growth value.
Supply the numeric figure in %, leaving out any unit text.

* O=C(c1ccccc1)c1ccc(Oc2ccc([N+](=O)[O-])cc2[N+](=O)[O-])cc1 | 43.6
* CCCCN(CCCC)CCCO | 95.5
* O=C(NNc1ccc(-c2ccccc2)nn1)c1ccccc1 | 98.8
* CCCCCCN1C(=O)C2=C(c3ccc(Cl)cc3)Nc3c(c(C)nn3-c3ccccc3)C2c2ccccc21 (stereo not given) | 102

Consider the record given below.
q: Specify measured growth for COC(=O)CNC(=O)C(=O)c1c(O)c(O)c(C(C)C)c2cc(C)c(-c3c(C)cc4c(C(C)C)c(O)c(O)c(C(=O)C(=O)NCC(=O)OC)c4c3O)c(O)c12 .
a: 24.6
